- Organism: Rattus norvegicus
- EXPERIMENTAL DETAILS: Vasorelaxant potency required to relax methoxamine contracted male Wistar Kyoto rat thoracic aorta
- Assay type: functional
pIC50: −log10 of the molar value.

>  <SMILES REPR>
CC1(C)Oc2ccc(C#N)cc2[C@@H](/N=C(/N)NC#N)[C@@H]1O

>  <RESULT QUALIFIER>
=

>  <pIC50>
6.49

$$$$
>  <SMILES REPR>
CN(C)CC/N=C(/NC#N)N[C@@H]1c2cc(C#N)ccc2OC(C)(C)[C@H]1O

>  <RESULT QUALIFIER>
<

>  <pIC50>
4.00

$$$$
>  <SMILES REPR>
CC1(C)Oc2ccc(C#N)cc2[C@@H](/N=C(\NC#N)N2CCCC2)[C@@H]1O

>  <RESULT QUALIFIER>
=

>  <pIC50>
7.47

$$$$
>  <SMILES REPR>
CC/N=C(/NC#N)N[C@@H]1c2cc(C#N)ccc2OC(C)(C)[C@H]1O

>  <RESULT QUALIFIER>
=

>  <pIC50>
6.42

$$$$
>  <SMILES REPR>
CC1(C)Oc2ccc(C#N)cc2[C@@H](N2CCN=C2NC#N)[C@@H]1O

>  <RESULT QUALIFIER>
=

>  <pIC50>
6.33

$$$$
>  <SMILES REPR>
COCC/N=C(/NC#N)N[C@@H]1c2cc(C#N)ccc2OC(C)(C)[C@H]1O

>  <RESULT QUALIFIER>
=

>  <pIC50>
5.77

$$$$
>  <SMILES REPR>
CCC(C)(C)/N=C(\NC#N)N[C@@H]1c2cc(C#N)ccc2OC(C)(C)[C@H]1O

>  <RESULT QUALIFIER>
=

>  <pIC50>
4.53

$$$$
>  <SMILES REPR>
CN(C)/C(=N/[C@@H]1c2cc(C#N)ccc2OC(C)(C)[C@H]1O)NC#N

>  <RESULT QUALIFIER>
=

>  <pIC50>
6.31

$$$$
>  <SMILES REPR>
CC1(C)Oc2ccc(C#N)cc2[C@@H](N2CCCN=C2NC#N)[C@@H]1O

>  <RESULT QUALIFIER>
=

>  <pIC50>
6.92

$$$$
>  <SMILES REPR>
C/N=C(\NC#N)N[C@@H]1c2cc(C#N)ccc2OC(C)(C)[C@H]1O

>  <RESULT QUALIFIER>
=

>  <pIC50>
6.70

$$$$
>  <SMILES REPR>
CC1(C)Oc2ccc(C#N)cc2[C@@H](/N=C(\NC#N)N2CCN(Cc3ccccc3)CC2)[C@@H]1O

>  <RESULT QUALIFIER>
=

>  <pIC50>
4.88

$$$$
>  <SMILES REPR>
CC(C)/N=C(/NC#N)N[C@@H]1c2cc(C#N)ccc2OC(C)(C)[C@H]1O

>  <RESULT QUALIFIER>
=

>  <pIC50>
6.18

$$$$
